Taken from patent US20250099596A1.

- method.description: Pharmacokinetic evaluation, C57 mouse test
- Assay type: in vivo
- experimental.setup: female, mouse, plasma, po; C57 mice, i.g., 2.0 mg/kg; read-out: Area under curve AUC0-t
reported.endpoint: AUC(0-t)
Param answer (str): number followed by unit.

Query string: Dear colleague, I am looking for the recorded AUC(0-t) of the following compound: CC(C)C[C@H]1CCc2cc(O)ccc2[C@H]1c1ccc(N2CCC(CN3CCN(c4ccc5c(c4)CN([C@H]4CCC(=O)NC4=O)C5=O)CC3)CC2)cc1 [Example 26-1]
Result string: 517 ng·h/mL

* * *

- method.description: Pharmacokinetic evaluation, C57 mouse test
- Format: in vivo
- experimental.setup: female, mouse, plasma, po; C57 mice, i.g., 2.0 mg/kg; read-out: Plasma concentration Cmax
reported.endpoint: Cmax (ng/mL)
Write the number in ng/mL without appending the unit.

Query string: Data request, read-out Cmax, for CC(C)C[C@H]1CCc2cc(O)ccc2[C@H]1c1ccc(N2CCC(CN3CCN(c4ccc5c(c4)CN([C@H]4CCC(=O)NC4=O)C5=O)CC3)CC2)cc1 [Example 26-1]
Result string: 59
